Each entry below carries its reported % viability at 1 μg/mL.
test system: Jurkat cells; assay: Cell cytotoxicity assay (propidium iodide, flow cytometry); format: cell-based, human; conditions: 24 h
property: % viability at 1 μg/mL

- smiles.data: "CCc1cc(O)c(F)cc1-c1ccc2c(-c3nc4c([nH]3)CCN(C(=O)NCCOCCOC)C4)n[nH]c2c1"
  measurement: "60%"
- smiles.data: "CCc1cc(O)c(F)cc1-c1ccc2c(-c3nc4c([nH]3)CCN(S(=O)(=O)N3CCN(C=O)CC3)C4)n[nH]c2c1"
  measurement: "93%"
- smiles.data: "CCc1cc(O)c(F)cc1-c1ccc2c(-c3nc4c([nH]3)CCN(C(=O)N3CCN(CC)C(=O)C3=O)C4)n[nH]c2c1"
  measurement: "99%"
- smiles.data: "CCc1cc(O)c(F)cc1-c1ccc2c(-c3nc4c([nH]3)CCN(S(=O)(=O)N(CCC#N)CCOC)C4)n[nH]c2c1"
  measurement: "79%"
